Assay: protein stability index of a GFP-peptide fusion (GPS, HEK-293T) (PSI 1-6); higher = more stable;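 also: 24-mer peptide tiles fused after GFP, lentivirally expressed, FACS-sorted into six equal bins by GFP/DsRed ratio, decoded by Illumina sequencing, PSI is the read-weighted mean bin number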
Details: treatment: DMSO; c terminus: a fixed tail appended
endpoint_label: protein stability index
Enter a number only.

Worked cases, answers included:
1. ETEEMLGKKQEYLENRIQREIALA [CHMP4C]
4.44
2. PYLRFGCLSCRLFYFKLTDLYKKV [CRY1]
2.55
3. GSCSTEVEKETQEKMTILQTYFRQ [ATP6V1G1]
2.5
4. NKSVTLYTVKDKATGEVLGQFYLD [NLN]
2.13
5. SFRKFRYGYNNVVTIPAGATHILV [ADAMTS4]
2.64

Enquiry: State, in one line, measured protein stability index of RSWFPSAPGSASSSKVSGVLKKLA [YJU2B]
Return: 2.61

Enquiry: Complete the entry with protein stability index for MVTQILGAMESQVGGGPAGPALPN [ELAVL3]
Return: 2.69

Enquiry: Recall and state the measured protein stability index for WMEILILGVVYRSLSFEDELVYAD [ESRRG] .
Return: 3.77

Enquiry: Recall and state the measured protein stability index for YGYLPEDKVLGTFEFDETSFWNSS [KLHDC2] .
Return: 2.66

Enquiry: Determine from records and report protein stability index for PTELWPQEAVPLGLGLEDADWTQG [TEX19]
Return: 4.56

Enquiry: For the sequence MENVPKENKVVEKAPVQNEAPALG [BEX5] , give its measured protein stability index value.
Return: 5.33

Enquiry: Tell me measured protein stability index for SRKKPIWNVLMWTSLFLGNGVLLC [SOAT1] please.
Return: 2.67
